# System: CAKI-1 renal
# methodDescription: NCI-60 one-dose screen, 48 h
# conditionNotes: 10 µM unless noted
This is part of a sample that, as a whole, favours compounds with a hit. Of some 83,000 tested, about 20% had one in any assay. Calls of active or inactive are those of the source. The calls were made as follows: active = growth percent below 10; inactive = the rest.
Valid outcomes are listed here; reply with one: true (1) for active, false (0) for inactive

Reference set, count: 5
CC1=C(C#N)C(C)(C)C(C#N)=C(C)N1    false (0)
COc1cc2c(cc1OCCCCn1c(-c3cc(=O)c4ccccc4o3)nc3ccccc31)N=C[C@@H]1CCCN1C2=O    false (0)
Nc1cccc2c1CN(C1CCC(=O)NC1=O)C2=O (stereo not given)    false (0)
O=C(Nc1cccc(C(F)(F)F)c1)Nc1ccc(OCc2nnc(-c3ccccc3)o2)c(F)c1    false (0)
COc1ncc(-c2ccc3ncnc(Nc4cccc(Cl)c4)c3c2)cc1NS(=O)(=O)CCN1CCOCC1    true (1)

Query: For CCCCCC(=O)OCc1ccccc1 , what call appears in the results of this test?
Result: false (0)

Query: For COc1ccc(-c2nc(-c3nc4ccc(F)cc4[nH]3)cc3c2[nH]c2ccccc23)cc1 , what call appears in the results of this test?
Result: false (0)

* * *

# Tested on: SK-MEL-5 melanoma
# methodDescription: NCI-60 one-dose screen, 48 h
# conditionNotes: 10 µM unless noted
The panel holds about 83,000 compounds, 20% with a hit somewhere; the sample as a whole holds those more often. The source made the active and inactive calls. Rule for the calls: active = growth percent below 10; inactive = the rest.
Valid outcomes are listed here; reply with one: 1 (active), 0 (inactive)

Query: For COc1ccc(C(=O)c2cc(OC)c(OC)c(OC)c2)cc1/C=C/C(=O)c1ccc(OC)c(OC)c1 , what call appears in the results of this test?
Result: 0

* * *

# Test system: SK-MEL-2 melanoma
# methodDescription: NCI-60 one-dose screen, 48 h
# conditionNotes: 10 µM unless noted
The panel holds about 83,000 compounds, 20% with a hit somewhere; the sample as a whole holds those more often. Activity calls are given as the source filed them. How the source made its calls: active means growth percent below 10; inactive means the rest.
Valid outcomes are listed here; reply with one: 1 (yes) = active, 0 (no) = inactive

Clc1cccc(Cl)c1Cn1c(-c2cncs2)nc2ccccc21    0 (no)
CNC(C)=O    0 (no)
N#CC1=C(N)n2nc(-c3ccncc3)nc2NC1c1cccc2ccccc12 (stereo unspecified)    0 (no)
COc1ccc(C2CC(=O)Nc3c2c(C)nn3-c2nc3ccccc3[nH]2)cc1OC (stereo unspecified)    0 (no)
CCCOC(=O)C1(O)CCCC1    0 (no)

Query: For CSc1ccccc1C#C/C=C\C#Cc1ccccc1N1CCCC1=O , what call appears in the results of this test?
Result: 0 (no)

* * *

# System: SNB-19 CNS
# methodDescription: NCI-60 one-dose screen, 48 h (100 = growth as untreated, 0 = no growth, -100 = all killed)
# conditionNotes: 10 µM unless noted
This is part of a sample that, as a whole, favours compounds with a hit. Of some 83,000 tested, about 20% had one in any assay. Calls of active or inactive are those of the source. How the source made its calls: active means growth percent below 10; inactive means the rest.
quantity: growth

Please review the following examples before continuing.
CN(C)C/C=C/C(=O)Nc1cc2c(Nc3cccc(Cl)c3F)ncnc2cc1OCCOC(F)F    57.1% (inactive)
CCOC(=O)CC/C(C)=N\Nc1ccc([N+](=O)[O-])cc1    95.5% (inactive)
N#CC1=C(N)OC2=C(C(=O)CCC2)C1c1ccco1 (stereo unspecified)    98.3% (inactive)
CCC1CCc2nc3sc(C(=O)Nc4ccccc4C)c(N)c3cc2C1 (stereo unspecified)    54.1% (inactive)
ClC1=C(Cl)C(Cl)=C(Cl)C1=Cc1ccc(Cl)cc1Cl    -6.26% (active)

Query: Data request, read-out growth, for COc1ccc(NC(=O)CSc2nc3ccccc3c(=O)n2Cc2cc(OC)c(OC)c(OC)c2)cc1
Result: 95.8% (inactive)

* * *

# Tested on: TK-10 renal
# methodDescription: NCI-60 one-dose screen, 48 h
# conditionNotes: 10 µM unless noted
# Method: Growth inhibition of the TK-10 human tumor cell line is measured as a screen for anti-cancer activity. Cells are grown in 96 well plates and exposed to the test compound for 48 hours. Compounds are tested at a single concentration, which is 10^-5 M for most compounds. The reported endpoint is percent growth (GI% or GIPRCNT), where numbers from 0 - 100% represent growth inhibition, and numbers from -100% - 0 represent cell death. For example, a value of 40 represents 60% growth inhibition. […]
The panel holds about 83,000 compounds, 20% with a hit somewhere; the sample as a whole holds those more often. Activity calls are given as the source filed them. How the source made its calls: active means growth percent below 10; inactive means the rest.
Valid outcomes are listed here; reply with one: y for active, n for inactive

Reference set, count: 6
CCN1C(=O)N(CC)C2C1NN=c1s/c(=C\c3cccc(F)c3)c(=O)n12 (stereo unspecified)    n
O=C(CNC(=O)c1cccc2ccccc12)Nc1ccccc1Oc1ccccc1    n
COc1cccc2cc(-c3cc4ccccc4[nH]3)/c(=N/C(=S)Nc3ccccc3)oc12    n
COc1ccc(C2=NN(c3ccc(S(N)(=O)=O)cc3)C(c3cn(-c4ccccc4)nc3-c3ccc(Cl)cc3)C2)cc1 (stereo unspecified)    n
Cc1ccc(OCCn2c(C)nn(-c3ccc(Cl)cc3)c2=O)cc1    n
C=C1C(=O)O[C@H]2[C@H]1CC/C(COC(=O)NCc1cc(OC)cc(OC)c1)=C\CC[C@@]1(C)O[C@@H]21    y

Query: For O=C(Nc1cccc(C(F)(F)F)c1)Nc1ccc(OCc2nnc(-c3ccccc3)o2)c(F)c1 , what call appears in the results of this test?
Result: n

Query: For O=C(Nc1ccc(F)c(Cl)c1)c1n[nH]c(=O)c2ccccc12 , what call appears in the results of this test?
Result: n

Query: For Cc1cnc(NC(=O)C(Cc2ccccc2)NC(=O)c2ccccc2)s1 (stereo unspecified) , what call appears in the results of this test?
Result: n

Query: For O=S=Nc1ccc([N+](=O)[O-])cc1 , what call appears in the results of this test?
Result: n

Query: For O=c1oc2c([nH]c3ccc4ccccc4c32)c2ccccc12 , what call appears in the results of this test?
Result: n

Query: For CCN1C(=O)N(CC)C2C1NN=c1s/c(=C3\C(=O)N(C4CCCC4)c4ccccc43)c(=O)n12 (stereo unspecified) , what call appears in the results of this test?
Result: n

* * *

# Test system: EKVX NSCLC
# methodDescription: NCI-60 one-dose screen, 48 h
# conditionNotes: 10 µM unless noted
The panel holds about 83,000 compounds, 20% with a hit somewhere; the sample as a whole holds those more often. Calls of active or inactive are those of the source. How the source made its calls: active means growth percent below 10; inactive means the rest.
Valid outcomes are listed here; reply with one: YES for active, NO for inactive

O=C1CCC(=O)N1Cc1ccccc1    NO
CC(C)(C)OC(=O)N1C/C(=C\c2cccs2)C(=O)/C(=C/c2cccs2)C1    NO
COc1cccc2nc(Nc3ccc(NC(=O)c4ccc5ncccc5c4)cc3)ccc12    NO
CC(C)(C)c1cc(-c2nc3ccc(N4CCN(CCO)CC4)cc3[nH]2)cc(C(C)(C)C)c1O    NO
CC(Br)C(Br)c1cc2c(cc1Br)OCO2 (stereo not given)    NO

Query: For CCOC(=O)/C=C\C(=O)NC(N)=O , what call appears in the results of this test?
Result: NO

Query: For CCN1C(=O)N(CC)C2C1NN=c1s/c(=C\c3ccccn3)c(=O)n12 (stereo not given) , what call appears in the results of this test?
Result: NO

Query: For C=C1C(=O)O[C@H]2[C@H]1CC/C(Cn1cc(-c3ccccc3C(F)(F)F)nn1)=C\CC[C@@]1(C)O[C@@H]21 , what call appears in the results of this test?
Result: YES

Query: For COc1ccc(NC(=S)/N=c2\oc3c(OC)cccc3cc2-c2cc3ccccc3[nH]2)cc1 , what call appears in the results of this test?
Result: NO

Query: For CC/C=C\C/C=C\C[C@H]1C/C=C2/C(=O)C=C[C@H]2C/C=C\CCC(=O)O1 , what call appears in the results of this test?
Result: NO

* * *

Quick reference for growth among some compounds
# Test system: UACC-257 melanoma
# methodDescription: NCI-60 one-dose screen, 48 h (100 = growth as untreated, 0 = no growth, -100 = all killed)
# conditionNotes: 10 µM
The panel holds about 83,000 compounds, 20% with a hit somewhere; the sample as a whole holds those more often.
Give a bare numeral; the unit % is implied.

Please review the following examples before continuing.
CCCC(C(=O)OCC)C(C)OC(=O)OCC (stereo not given)    97.5
Cc1cccc(-n2c(C)nc3ccc(NC(=O)NCCCl)cc3c2=O)c1    97.2
COc1ccc(C2=CC(c3ccc(Oc4ccnc5cc(Cl)ccc45)c(OC)c3)c3c(nc(OC)[nH]c3=O)N2)cc1 (stereo not given)    87.5
O=C(CNc1c(Cl)cccc1Cl)Nc1ccc(-c2nc3ccccc3s2)cc1    96.5
Cc1ccc(Nc2ncnc3c2sc2ncccc23)cc1    99.5
CCOC(=O)C1=C(CSC(=S)N(C2CCCCC2)C2CCCCC2)N(C)C(=O)NC1c1ccccc1 (stereo not given)    61.4
CC(C)C[C@H](NC(=O)[C@H](Cc1ccccc1)n1ccc(N2CCCCC2)cc1=O)B(O)O    -16.9
Cn1c(-c2nonc2NC(=O)c2ccc(F)cc2)nc2ccccc21    97.2

Query: Data request, read-out growth, for O=C(N/N=C/c1c(Cl)cccc1Cl)c1ccccc1Nc1ccnc(C(F)(F)F)c1
Result: 60.4

Query: Data request, read-out growth, for O=C(CN1CCOCC1)Nc1ccc(-c2nc3ccccc3s2)cc1
Result: 101

From: PubChem BioAssay (NCI)
